- protocol-summary: Reversal of Pgp-mediated DOX resistance in human SW620/AD300 cells assessed as concentration required to show half of DOX IC50 incubated for 48 hrs by SRB assay
Property: EC50; scope: individual compounds

[
  {
    "query-smiles": "COc1cc2c(cc1OC)CN(CCc1ccc(NC(=O)/C=C/c3ccc(Oc4ccc(-c5ccccn5)c(Cl)c4)nc3)cc1)CC2",
    "EC50 (nM)": 37
  },
  {
    "query-smiles": "COc1cc2c(cc1OC)CN(CCc1ccc(NC(=O)/C=C/c3ccc(Oc4ccc(-c5ccccn5)c(C#N)c4)nc3)cc1)CC2",
    "EC50 (nM)": 51
  },
  {
    "query-smiles": "COc1cc2c(cc1OC)CN(CCc1ccc(NC(=O)/C=C/c3ccc(Oc4ccc(-c5cccnc5)cc4)nc3)cc1)CC2",
    "EC50 (nM)": 103
  }
]

Origin of measurements: BindingDB's records for doi:10.1021/acs.jmedchem.0c00337
